- Test system: Phaedon cochleariae
- METHOD: Phaedon cochleariae spray test
- Format: in vivo
- APPLIED_CONDITIONS: 168 h, application rate 100 g/ha, larvae, after 7 days, read-out: efficacy
- Experimental: [table] To produce a suitable active ingredient formulation, 1 part by weight of active ingredient is dissolved with the specified parts by weight of solvent and made up to the desired concentration with water containing an emulsifier concentration of 1000 ppm. To produce further test concentrations, the formulation is diluted with emulsifier-containing water. […] After 7 days, the efficacy in % is determined. […]

{"MOL_SMILES": "CCS(=O)(=O)c1c(-n2cc3ccc(C(F)(F)F)cc3n2)nc(-c2ccc(Cl)cc2)n1C", "MEASUREMENT_TARGET": "Phaedon cochleariae", "pest or weed control at 100 g/ha": "67%"}
{"MOL_SMILES": "CCS(=O)(=O)c1c(-c2nc3cc(C(F)(F)F)ncc3n2C)nc(-n2cccn2)n1C", "MEASUREMENT_TARGET": "Phaedon cochleariae", "pest or weed control at 100 g/ha": "100%"}
{"MOL_SMILES": "CCn1c(Cl)nc(-c2nc3cc(C(F)(F)F)ncc3n2C)c1S(=O)(=O)CC", "MEASUREMENT_TARGET": "Phaedon cochleariae", "pest or weed control at 100 g/ha": "100%"}
{"MOL_SMILES": "CCS(=O)(=O)c1c(-c2nc3cc(C(F)(F)F)ncc3n2C)nc(-c2ccnn2C)n1C", "MEASUREMENT_TARGET": "Phaedon cochleariae", "pest or weed control at 100 g/ha": "100%"}
{"MOL_SMILES": "CCS(=O)(=O)c1c(-c2nc3cc(C(F)(F)F)ncc3n2C)nc(-c2cnn(CC(F)(F)F)c2)n1C", "MEASUREMENT_TARGET": "Phaedon cochleariae", "pest or weed control at 100 g/ha": "100%"}
{"MOL_SMILES": "CCS(=O)(=O)c1c(-n2cc3ncc(C(F)(F)F)cc3n2)nc(-c2ccc(Cl)cc2)n1C", "MEASUREMENT_TARGET": "Phaedon cochleariae", "pest or weed control at 100 g/ha": "83%"}
{"MOL_SMILES": "CCS(=O)(=O)c1c(-c2nc3cc(C(F)(F)F)ncc3n2C)nc(-c2cccnc2F)n1C", "MEASUREMENT_TARGET": "Phaedon cochleariae", "pest or weed control at 100 g/ha": "100%"}
{"MOL_SMILES": "CCS(=O)(=O)c1c(-c2nc3cc(C(F)(F)F)ncc3n2C)nc(-c2cncc(F)c2)n1C", "MEASUREMENT_TARGET": "Phaedon cochleariae", "pest or weed control at 100 g/ha": "100%"}
{"MOL_SMILES": "CCS(=O)(=O)c1c(-c2nc3cc(C(F)(F)F)ncc3n2C)nc(-c2ccccn2)n1C", "MEASUREMENT_TARGET": "Phaedon cochleariae", "pest or weed control at 100 g/ha": "100%"}
{"MOL_SMILES": "CCS(=O)(=O)c1c(-n2cc3ncc(C(F)(F)F)cc3n2)nc(-c2ccccc2)n1C", "MEASUREMENT_TARGET": "Phaedon cochleariae", "pest or weed control at 100 g/ha": "100%"}
{"MOL_SMILES": "CCS(=O)(=O)c1c(-c2nc3cc(C(F)(F)F)ncc3n2C)nc(-c2ccc(Cl)c(C#N)c2)n1C", "MEASUREMENT_TARGET": "Phaedon cochleariae", "pest or weed control at 100 g/ha": "83%"}

Hello, the source for this data is patent US11083199B2, in case you need it.
